Provenance of the data: ChEMBL document CHEMBL1201862

# Tested on: HT-29
# testMethodNotes: NCI tumour cell line growth inhibition, 48 h
Activity calls are given as the source filed them. No stated cut-off is given here; in the data, active = GI50 up to about 1.1 µM and inactive = higher.

compound: Cc1cc(/N=C/c2ccc(F)cc2)n(-c2ccccc2)n1
targetEntity: HT-29
GI50: 48.9 µM (inactive)
//
compound: COC(=O)Nc1nc2ccccc2[nH]1
targetEntity: HT-29
GI50: 4.66 µM (inactive)
//
compound: N/C(CCSCCSCC/C(N)=N\O)=N\O
targetEntity: HT-29
GI50: > 100 µM (inactive)
//
compound: O=C(O)/C=C\C(=O)Nc1ccc(S(=O)(=O)c2ccc(NC(=O)/C=C\C(=O)O)cc2)cc1
targetEntity: HT-29
GI50: > 100 µM (inactive)
//
compound: OC(C/C(=N\N1CCCCC1)c1cccs1)(C(F)(F)F)C(F)(F)F
targetEntity: HT-29
GI50: > 10 µM (inactive)
//
compound: N#CC1CCCCC1NC1(C#N)CCCCC1 (centres undefined)
targetEntity: HT-29
GI50: > 100 µM (inactive)
//
compound: C=C1C(=O)OC2C=C(CCC(C)=O)C(C)C(OC(C)=O)CC12 (centres undefined)
targetEntity: HT-29
GI50: 11.8 µM (inactive)
//
compound: COc1ccc(\N=C/C=C/C(=C/COC(C)=O)OC(C)=O)cc1
targetEntity: HT-29
GI50: 23.2 µM (inactive)
//
compound: CC(=O)NC(CCCNC(=O)OCc1ccccc1)C(=O)NCc1ccccc1 (centres undefined)
targetEntity: HT-29
GI50: > 100 µM (inactive)
//
compound: CC(=O)OCc1ccc(O)c(C=O)c1
targetEntity: HT-29
GI50: > 100 µM (inactive)
//
compound: O=C1C=CC2(C=C1)CCNC1=C2C(=O)c2ccccc2C1=O
targetEntity: HT-29
GI50: > 100 µM (inactive)
//
compound: c1ccc(CSc2nc(N3CCCCC3)c3cn[nH]c3n2)cc1
targetEntity: HT-29
GI50: 31.8 µM (inactive)
//
compound: O=C1/C(=C/c2ccc(Cl)cc2)CCCc2ccccc21
targetEntity: HT-29
GI50: 4.67 µM (inactive)
//
compound: CC(C)N(c1cc2c(cc1F)c(=O)c(C(=O)O)cn2-c1ccc(N2CCN(C)CC2)cn1)C(C)C
targetEntity: HT-29
GI50: > 100 µM (inactive)
//
compound: COc1cc(/C=N/c2ccccn2)cc(OC)c1OC
targetEntity: HT-29
GI50: > 100 µM (inactive)
//
compound: CCn1c(=O)c2nc(SC)sc2n(-c2ccc(C)cc2)c1=O
targetEntity: HT-29
GI50: > 100 µM (inactive)
//
compound: NNC(=O)CC(=O)Nc1ccc(Cl)cc1
targetEntity: HT-29
GI50: > 100 µM (inactive)
//
compound: COc1ccc2c(c1)CC[C@@H]1C2CC[C@]2(C)C(=O)N(CCN(C)C)C(=O)CC12 (some centres undefined)
targetEntity: HT-29
GI50: > 100 µM (inactive)
//
compound: N=C(N)C1=C(O)NC(=O)N(C2CCCCC2)C1
targetEntity: HT-29
GI50: > 100 µM (inactive)

---

# System: HOP-62
# testMethodNotes: NCI tumour cell line growth inhibition, 48 h
Active and inactive are the calls of the source. Rule as the data show it: active = GI50 up to about 1.1 µM and inactive = higher.
Classes used: yes (1) for active, no (0) for inactive

molecule: CCCCCCc1cc2c(C)c(C)c(=O)oc2cc1OCCCOc1cc2oc(=O)c(C)c(C)c2cc1CCCCCC
targetEntity: HOP-62
classLabel: no (0)
//
molecule: C=C1CC2C(=O)N(c3ccccc3)C(=O)C2CC1n1[nH]c(=O)n(Cc2ccccc2)c1=O (stereo unspecified)
targetEntity: HOP-62
classLabel: no (0)
//
molecule: NS(=O)(=O)c1ccc(/N=N/c2cnc(O)c(O)c2)cc1
targetEntity: HOP-62
classLabel: no (0)
//
molecule: Oc1cccnc1CN1CCCCC1
targetEntity: HOP-62
classLabel: no (0)
//
molecule: COc1ccc(C2c3cc4c(cc3OC(NNS(=O)(=O)c3ccc(C)cc3)C2C)OCO4)cc1 (stereo unspecified)
targetEntity: HOP-62
classLabel: no (0)
//
molecule: O=C(O)C1C(C(=O)O)C2C(=O)C=CC1N2Cc1ccccc1 (stereo unspecified)
targetEntity: HOP-62
classLabel: no (0)
//
molecule: OC(C/C(=N\N1CCCCC1)c1cccs1)(C(F)(F)F)C(F)(F)F
targetEntity: HOP-62
classLabel: no (0)
//
molecule: CC(=O)O[C@H]1C(=O)[C@@]2(C)[C@H]([C@H](OC(=O)c3ccccc3)[C@]3(O)C[C@H](OC(=O)[C@H](O)[C@@H](NC(=O)c4ccccc4)C4CCCCC4)C(C)=C1C3(C)C)[C@]1(OC(C)=O)CO[C@@H]1C[C@@H]2O
targetEntity: HOP-62
classLabel: yes (1)
//
molecule: C/C(=N\[N+](C)(C)C)C(c1ccccc1)C1(c2ccccc2)C(c2ccccc2)=C1c1ccccc1 (stereo unspecified)
targetEntity: HOP-62
classLabel: no (0)
//
molecule: O=C(Nc1ccccc1C(=O)Nc1nccs1)c1ccccc1
targetEntity: HOP-62
classLabel: no (0)
//
molecule: [N-]=[N+]=NC1C(O)C(CO)OC1n1cnc2c(N)ncnc21 (stereo unspecified)
targetEntity: HOP-62
classLabel: no (0)
//
molecule: CCN(CC)CC1c2ccccc2C(CNc2ccccc2)N1C (stereo unspecified)
targetEntity: HOP-62
classLabel: no (0)
//
molecule: CC1N[B@@-](C)(c2ccc(C(F)(F)F)cc2)OC1c1ccccc1 (stereo partly specified)
targetEntity: HOP-62
classLabel: no (0)
//
molecule: Cc1ccc2nc3c(C(=O)NCCN(C)C)cccc3nc2c1
targetEntity: HOP-62
classLabel: no (0)
//
molecule: CCOC(=O)C(C(=O)OCC)C(=O)c1ccccc1C(=O)c1ccccc1
targetEntity: HOP-62
classLabel: no (0)
//
molecule: Cn1c(=O)n2n(c1=O)C(S(=O)(=O)c1ccccc1)C2 (stereo unspecified)
targetEntity: HOP-62
classLabel: no (0)
//
molecule: COc1ccc(/C(=N/N=c2[nH]c3ccccc3[nH]2)C(=O)O)cc1
targetEntity: HOP-62
classLabel: no (0)
//
molecule: O=C1c2cscc2C(=O)C1(O)O
targetEntity: HOP-62
classLabel: no (0)
//
molecule: COP1(=O)OCc2cnccc2O1 (stereo unspecified)
targetEntity: HOP-62
classLabel: no (0)
//
molecule: COc1ccc(C(c2ccc(C(C)C)cc(OC)c2=O)c2ccc(C(C)C)cc(OC)c2=O)cc1
targetEntity: HOP-62
classLabel: no (0)
//
molecule: CC1C/C(=C\c2ccc(OC(=O)C(C)(C)C)cc2)C(=O)/C(=C/c2ccc(OC(=O)C(C)(C)C)cc2)C1 (stereo unspecified)
targetEntity: HOP-62
classLabel: no (0)
//
molecule: C[C@]12CC[C@H](OCCC#N)CC1=CC[C@@H]1C2CC[C@]2(C)/C(=N/OCCC#N)CCC12 (stereo partly specified)
targetEntity: HOP-62
classLabel: no (0)
//
molecule: COc1ccc2c(=O)c3ccoc3[nH]c2c1
targetEntity: HOP-62
classLabel: no (0)
//
molecule: O=C(NC(=O)c1ccccc1[N+](=O)[O-])Nc1ccc(Oc2ncc(Cl)cn2)c([N+](=O)[O-])c1
targetEntity: HOP-62
classLabel: yes (1)
//
molecule: COc1nc2c(c(=O)n1C)N[C@@H]1[C@@H](O)[C@H](O)CO[C@@H]1N2
targetEntity: HOP-62
classLabel: no (0)
//
molecule: COc1ccc(Br)c(/C=N\c2cccc3cc(OC)c(OC)cc23)c1
targetEntity: HOP-62
classLabel: no (0)

---

# Tested on: OVCAR-8
# testMethodNotes: NCI tumour cell line growth inhibition, 48 h
Calls of active or inactive are those of the source. No stated cut-off is given here; in the data, active = GI50 up to about 1.1 µM and inactive = higher.
property: GI50

compound: O=C(CNc1cccc([N+](=O)[O-])c1)Nn1c(-c2ccccc2)nc2ccccc2c1=O
targetEntity: OVCAR-8
assayResult: 1.59 µM (inactive)

compound: COc1ccc(S(=O)(=O)N/N=C(\C)CN2C(=O)c3ccccc3C2=O)cc1OC
targetEntity: OVCAR-8
assayResult: > 100 µM (inactive)

compound: O=C([O-])C1([n+]2c(-c3ccccc3)cc(-c3ccccc3)cc2-c2ccccc2)CC1
targetEntity: OVCAR-8
assayResult: > 100 µM (inactive)

compound: O=C1C(Cl)=C(NCCF)C(=O)c2ncccc21
targetEntity: OVCAR-8
assayResult: 2.03 µM (inactive)

compound: Cc1cc(-c2nc3ccccc3s2)ccc1N
targetEntity: OVCAR-8
assayResult: 61.5 µM (inactive)

compound: O=C(Cc1cccs1)N[C@@H]1C(=O)N2C(C(=O)OC(c3ccccc3)c3ccccc3)=C(CO)CS[C@H]12
targetEntity: OVCAR-8
assayResult: > 100 µM (inactive)

compound: CCCCCCc1cc2c(C)c(C)c(=O)oc2cc1OCCCOc1cc2oc(=O)c(C)c(C)c2cc1CCCCCC
targetEntity: OVCAR-8
assayResult: > 100 µM (inactive)

compound: COc1cccc(C2c3cc4c(cc3OC(NNc3ccccc3)C2C)OCO4)c1OC (configuration not stated)
targetEntity: OVCAR-8
assayResult: 7.6 µM (inactive)

compound: CS(=O)(=O)C[S+]([O-])C[S+]([O-])C[S+]([O-])CC(NC(=O)CCC(N)C(=O)O)C(=O)O (configuration not stated)
targetEntity: OVCAR-8
assayResult: > 100 µM (inactive)

compound: CC1=NN(c2nc(N)nc(CF)n2)C(C)(C)C1
targetEntity: OVCAR-8
assayResult: > 100 µM (inactive)

compound: NC(=O)C(c1ccccc1)N1OC2C(=O)N(Cc3ccccc3)C(=O)C2C1c1cccc(Oc2ccc(Cl)cc2)c1 (configuration not stated)
targetEntity: OVCAR-8
assayResult: 39.7 µM (inactive)

compound: CC(C)(CN)CN
targetEntity: OVCAR-8
assayResult: > 100 µM (inactive)

compound: C=CCNC(=O)NC1=CSC2=NC(=O)C3(NN12)c1ccccc1-c1ccccc13
targetEntity: OVCAR-8
assayResult: > 10 µM (inactive)

compound: Nc1nc(NCCCO)cc(=O)[nH]1
targetEntity: OVCAR-8
assayResult: > 100 µM (inactive)

compound: C=CCC1(CN(C)C)CC/C(=C\c2ccc(Cl)cc2)C1=O (configuration not stated)
targetEntity: OVCAR-8
assayResult: 42.3 µM (inactive)

compound: Cc1ccc(S(=O)(=O)NC(=O)Nc2nc[nH]n2)cc1
targetEntity: OVCAR-8
assayResult: > 100 µM (inactive)

compound: COc1ccc(-c2oc3cc(O)c(OC)c(O)c3c(=O)c2O)cc1
targetEntity: OVCAR-8
assayResult: 9.95 µM (inactive)

compound: N=C(N)C1=C(O)NC(=O)N(C2CCCCC2)C1
targetEntity: OVCAR-8
assayResult: > 100 µM (inactive)

compound: O.O=C([O-])c1ccccc1Nc1ccccc1C(=O)[O-].[Zn+2]
targetEntity: OVCAR-8
assayResult: 26.9 µM (inactive)

compound: CCCCC/C=C\C=C\CCCCCCCCC(=O)OC
targetEntity: OVCAR-8
assayResult: > 100 µM (inactive)

compound: CC1C/C(=C\c2ccc(OC(=O)C(C)(C)C)cc2)C(=O)/C(=C/c2ccc(OC(=O)C(C)(C)C)cc2)C1 (configuration not stated)
targetEntity: OVCAR-8
assayResult: 36 µM (inactive)

compound: OCCSCc1cc(Cl)cc(Cl)c1O
targetEntity: OVCAR-8
assayResult: > 100 µM (inactive)
